Source of measurements: patent US12084472B2

- ASSAYED SYSTEM: human TGR5 (Homo sapiens, UniProt Q8TDU6)
- Construct: expressed in transfected cells; host or cells: HEK293
- Sequence (Q8TDU6 whole entry): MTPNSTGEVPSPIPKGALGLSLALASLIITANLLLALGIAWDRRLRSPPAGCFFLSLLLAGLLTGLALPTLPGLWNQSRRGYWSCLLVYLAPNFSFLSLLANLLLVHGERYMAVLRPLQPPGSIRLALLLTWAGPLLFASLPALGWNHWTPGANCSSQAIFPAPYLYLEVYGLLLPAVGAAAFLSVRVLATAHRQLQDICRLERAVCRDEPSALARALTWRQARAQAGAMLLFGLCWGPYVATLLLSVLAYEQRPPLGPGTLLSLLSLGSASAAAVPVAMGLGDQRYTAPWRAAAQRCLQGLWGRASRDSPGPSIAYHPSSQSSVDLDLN
- ASSAY NAME: Cell-based TGR5 assay (cAMP generation, HTRF)
- MEASUREMENT SETUP: HEK293 cells stably transfected with human TGR5; cAMP by HTRF; 30 minutes at 37° C.; read-out: pEC50 Human TGR5 (converted)
ENDPOINT: EC50

[
  {
    "MOLECULE": "Cc1ccc(C(C)CCCC(=O)N(CC(=O)N(C)C)C[C@H](O)[C@@H](O)[C@H](O)[C@H](O)CO)cc1CNC1(c2cnccc2-c2ccccc2OC2CC2)CC1 (stereo partly drawn) [Compound I-364]",
    "ENDPOINT": "EC50",
    "REPORTED VALUE": "126 to 1000 nM"
  },
  {
    "MOLECULE": "O=C(NCCCCc1cc(Cl)c(CNC2(c3cnccc3-c3ccccc3OC3CC3)CC2)cc1Cl)NC[C@H](O)[C@@H](O)[C@H](O)[C@H](O)CO [Compound I-138]",
    "ENDPOINT": "EC50",
    "REPORTED VALUE": "< 100 nM"
  },
  {
    "MOLECULE": "CC(CCCN(C)C(=O)[C@@H](O)[C@@H](O)[C@H](O)[C@@H](O)CO)c1ccc(Cl)c(CNC2(c3cnccc3-c3ccccc3OC3CC3)CC2)c1 (stereo partly drawn) [Compound I-258]",
    "ENDPOINT": "EC50",
    "REPORTED VALUE": "< 100 nM"
  },
  {
    "MOLECULE": "CC(OCc1cc(S(=O)(=O)N(CCCCNC(=O)NC[C@H](O)[C@@H](O)[C@H](O)[C@H](O)CO)C(C)C)ccc1Cl)c1cnccc1-c1ccccc1OC1CC1 (stereo partly drawn) [Compound I-753]",
    "ENDPOINT": "EC50",
    "REPORTED VALUE": "< 100 nM"
  },
  {
    "MOLECULE": "CC(=O)N1C[C@@H]2C[C@H]1CN2S(=O)(=O)c1ccc(Cl)c(COC2(c3cnccc3-c3ccccc3OC3CC3)CC2)c1 [Compound I-780]",
    "ENDPOINT": "EC50",
    "REPORTED VALUE": "126 to 1000 nM"
  }
]

Attention now shifts to the item below.
Inquiry: // lookup EC50 for O=C(CC1CCN(S(=O)(=O)c2ccc(Cl)c(COC3(c4cnccc4-c4ccccc4OC4CC4)CC3)c2)CC1)NC[C@H](O)[C@@H](O)[C@H](O)[C@H](O)CO [Compound I-441]
Reply text: 126 to 1000 nM
